- Assay details: chemical genetic growth profiling, strain panel (AID 1159580);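 note: tested at 20 µM; growth read once vehicle control cultures reached saturation at 30 °C; 1 = growth at the plate median or of vehicle wells; lower values mean less growth of the strain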
- Experimental conditions: S. cerevisiae deletion strains, growth OD, locus YBR160W, strain CDC28, active compounds read low
Among all 5,500 compounds or so, about 2,000 (36%) were called active. Not shown: some 18% with an inconclusive outcome. This is one part of the list.
Recorded normalized growth for the following compounds
Form field (numeric): enter value without unit.

Compound	Reported result
Cc1cc(N=Cc2cc(Cl)cc(Cl)c2O)no1	0.964
Cc1cc(Sc2c([N+](=O)[O-])cc(C(F)(F)F)cc2[N+](=O)[O-])c(Cl)cc1Cl	0.991
O=C(Nc1cc(Cl)cc(Cl)c1)c1cc(Cl)ccc1O	0.934
C=CCC1C(=O)N(S(=O)(=O)c2ccc(Cl)cc2)N=C1CCC (centres undefined)	0.997
COC(=S)Nc1cc(Cl)cc(Cl)c1	0.935
CC1SC(c2cccnc2)N(c2ccc(Cl)cc2)C1=O (centres undefined)	0.967

Consider N/C(=N/OCc1c(F)cccc1Cl)c1ccc(Cl)cc1 . Its measured normalized growth is 0.932

// sample NNC(=O)c1oc2nc(-c3ccccc3)cc(-c3ccccc3)c2c1N , its normalized growth was 0.987

normalized growth reported for this compound COC(=O)c1cccc(NS(=O)(=O)c2ccc(Cl)c(Cl)c2)c1 : 0.983

* * *

- Assay details: chemical genetic growth profiling, strain panel (AID 1159580)
- Experimental conditions: S. cerevisiae deletion strains, growth OD, locus YOR184W, strain ser1, active compounds read low
Out of some 5,500 compounds screened, about 2,000 (36%) were called active. Inconclusive results (about 18%) are left out. Some of the results follow.
# Lookup of reported normalized growth keyed by entry
// no unit, no text: just the number

Molecule	normalized growth
Cc1cc(O)c2c(c1)C(=O)c1cc(O)cc(O)c1C2=O	0.299

Kindly note the recorded normalized growth for C[C@]12[C@H](O)CC3C(CC[C@@H]4C[C@@H](O)CC[C@]34C)[C@@]1(O)CC[C@@H]2C1=CC(=O)OC1 (some centres not stated) , which is 1.03

Memo: COc1cc2c(cc1OC)C(C)NCC2 (configuration not stated) , reported normalized growth: 0.998

Looking up O=c1c(O)c(-c2ccccc2)oc2cc(O)ccc12 , I see its normalized growth listed as 0.5

CON yielded normalized growth of 0.958

normalized growth reported for this molecule COc1cc2cccc(OC)c(=O)c2c(OC)c1OC : 1.04

Field normalized growth (entry CCCC(=O)Nc1ccc(OCC(O)CNC(C)C)c(C(C)=O)c1 (configuration not stated) ) reads 1.03

For record NC(=NCCCCCCN=C(N)N=C(N)Nc1ccc(Cl)cc1)N=C(N)Nc1ccc(Cl)cc1 the listed normalized growth is 0.0744

Entry N[C@@H](C(=O)N[C@@H]1C(=O)N2C(C(=O)O)=C(Cl)CS[C@H]12)c1ccccc1 , normalized growth reported as 1.02

Item: Cc1cc(O)c2c(c1)C(=O)c1cccc(O)c1C2=O | normalized growth: 0.946

Entry under test: O=C(O)CC[N+](=O)[O-] . Its normalized growth was 0.968

For reference, reported normalized growth for O=C(N[C@@H](CO)[C@H](O)c1ccc([N+](=O)[O-])cc1)C(Cl)Cl stands at 1

For record COC(=O)CC1C(C)(C)C(=O)C2CC3(O)C4=CC(=O)OC(c5ccoc5)C4(C)CCC3C1(C)C2=O (configuration not stated) the listed normalized growth is 0.992

Query O=C1C(=O)c2ccccc2C(O)=C1C1CCC(c2ccc(Cl)cc2)CC1 (configuration not stated) yields normalized growth of 0.984

* * *

- Assay details: chemical genetic growth profiling, strain panel (AID 1159580)
- Experimental conditions: S. cerevisiae deletion strains, growth OD, locus YDR334W, strain swr1
Out of some 5,500 compounds screened, about 2,000 (36%) were called active. Inconclusive results (about 18%) are left out. Rule as the data show it: active = normalized growth mostly below about 0.91 (no sharp cut-off); inconclusive = no clear call, values can overlap the other calls; inactive = mostly above about 0.92. The list shows a part of the results.
# valid calls are active, inactive; nothing else

Compound	Class label
CC(=O)c1c(O)cc(O)cc1O	inactive

Exercise: What classification did CC(=O)OCC1=C(C(=O)O)N2C(=O)[C@@H](NC(=O)CSc3ccncc3)[C@H]2SC1 end up with in this test?
Solution: inactive

Exercise: Returns: the outcome recorded for Cc1cc2nc3c(=O)[nH]c(=O)nc-3n(CC(O)C(O)C(O)CO)c2cc1C (stereo not drawn) in this assay.
Solution: inactive

* * *

- Assay details: chemical genetic growth profiling, strain panel (AID 1159580);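 note: tested at 20 µM; growth read once vehicle control cultures reached saturation at 30 °C; 1 = growth at the plate median or of vehicle wells; lower values mean less growth of the strain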
- Experimental conditions: S. cerevisiae deletion strains, growth OD, locus YAL021C, strain ccr4, active compounds read low
Hit rate of the full screen: of about 5,500 compounds, about 2,000 (36%) were called active. Roughly 18% stayed inconclusive and do not appear here. This is one part of the list.
Recorded measurements of normalized growth, one per entry
Please give the numeric answer without any surrounding text.

Reference set, count: 4
Compound	normalized growth
CNC(C)[C@@H]1CC[C@@H](N)[C@@H](OC2[C@@H](N)C[C@@H](N)[C@H](OC3OC[C@](C)(O)[C@H](NC)[C@H]3O)[C@H]2O)O1 (stereo not given in full)	1.02
O=C(/C=C/c1ccc(O)cc1)c1ccc(O)cc1O	0.981
COc1cc(O)c2c(c1)C(=O)c1cc(C)cc(O)c1C2=O	0.987
CC(=O)c1ccc[nH]1	1.01

Per the record, CCC[C@@H]1C[C@@H](C(=O)N[C@H]([C@H]2O[C@H](SC)[C@H](O)[C@@H](O)[C@H]2O)[C@H](C)O)N(C)C1 has normalized growth of 0.981

* * *

Items are presented alongside their recorded normalized growth.
- Assay details: chemical genetic growth profiling, strain panel (AID 1159580);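 note: tested at 20 µM; growth read once vehicle control cultures reached saturation at 30 °C; 1 = growth at the plate median or of vehicle wells; lower values mean less growth of the strain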
- Experimental conditions: S. cerevisiae deletion strains, growth OD, locus YMR219W, strain ESC1, active compounds read low
About 2,000 (36%) of roughly 5,500 compounds were called active. Inconclusive results (about 18%) are left out. The list shows a part of the results.

Compound	normalized growth
Cc1cc2c(cc1C)CSC(C)(c1ccc(F)cc1)SC2	1.01 (inactive)
COc1ccc(CCNC(=O)c2ccccc2Cl)cc1OC	0.981 (inactive)
Nc1ccccc1C(=O)NCCc1ccc(Cl)cc1	0.962 (inactive)
N/C(=N/O)c1cnccc1C(F)(F)F	0.996 (inactive)
O=C(O)C1c2ccccc2C(=O)N(Cc2ccc3c(c2)OCO3)C1c1cccnc1 (stereo unspecified)	1 (inactive)

Entry under test: CCCCC#Cc1ccc(C(=O)NNC(=O)Nc2cc(Cl)cc(Cl)c2)o1 . Its normalized growth was 1.01 (inactive)

// sample Cc1ccc(NC(=S)C(C#N)C(=O)N2CCCC2)c(C)c1 (stereo unspecified) , its normalized growth was 1 (inactive)

For this compound ( O=C(NNC(=S)Nc1cccc(Cl)c1)c1cccnc1 ), measured normalized growth is 0.999 (inactive)

O=C(O)c1cccc([N+](=O)[O-])c1C(=O)Nc1ccc(F)cc1 yielded normalized growth of 0.998 (inactive)

Recorded normalized growth (compound COC(=O)c1cccc([N+](=O)[O-])c1-c1c(C(=O)OC)cccc1[N+](=O)[O-] ): 0.99 (inactive)

Entry Cc1ccc(S(=O)(=O)N2CCC(C(c3ccccc3)c3ccccc3)CC2)cc1 ; normalized growth = 0.993 (inactive)

get_value(item= Nc1cccc2c1C(=O)c1ccccc1-2 , readout=normalized growth) returns 0.664 (active)

Measured normalized growth of Cc1ccc(S(=O)(=O)N2CCCCCC2)cc1 : 0.983 (inactive)

Sure, the documented normalized growth for COC(=O)c1cc(OC)c(OC)cc1NC(=O)Nc1cc(Cl)cc(Cl)c1 is 1.02 (inactive)

Entry Cc1cc(NC(=O)Nc2cccc(C(F)(F)F)c2)n(C)n1 , normalized growth reported as 1 (inactive)

According to the records, this compound COc1cccc(C2SCc3cc(C)c(C)cc3CS2)c1O displays normalized growth of 1 (inactive)

* * *

- Assay details: chemical genetic growth profiling, strain panel (AID 1159580);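 note: tested at 20 µM; growth read once vehicle control cultures reached saturation at 30 °C; 1 = growth at the plate median or of vehicle wells; lower values mean less growth of the strain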
- Experimental conditions: S. cerevisiae deletion strains, growth OD, locus YOR106W, strain vam3, active compounds read low
Out of some 5,500 compounds screened, about 2,000 (36%) were called active. About 18% were inconclusive and are not listed. The list shows a part of the results.
Readout label: normalized growth
Number only, please.

Compound	normalized growth
COc1cc(O)ccc1C(C)=O	1.02
CNC(C)[C@@H]1CC[C@@H](N)[C@@H](OC2[C@@H](N)C[C@@H](N)[C@H](OC3OC[C@](C)(O)[C@H](NC)[C@H]3O)[C@H]2O)O1 (stereo partly specified)	0.983
O=C(/C=C/c1ccc(O)cc1)c1ccc(O)cc1O	0.988

response.value for COc1cc(Cc2cnc(N)nc2N)cc(OC)c1OC (field: normalized growth) = 1.01

Per the records, this compound ( O=C(CCc1ccc(O)cc1)c1c(O)cc(O)cc1O ) has normalized growth equal to 1.02

Kindly note the recorded normalized growth for COCC1=C(C(=O)OC(C)OC(=O)OC(C)C)N2C(=O)[C@@H](NC(=O)/C(=N\OC)c3csc(N)n3)[C@H]2SC1 (stereo partly specified) , which is 0.983

The reported normalized growth of the compound CO/N=C(/C(=O)NC1C(=O)N2C(C(=O)OCOC(=O)C(C)(C)C)=C(/C=C\c3scnc3C)CSC12)c1csc(N)n1 (stereo unspecified) was 1.01

Cn1c(=O)[nH]c2ncn(C)c2c1=O yielded normalized growth of 1.01

The compound Cn1cnc2c1c(=O)[nH]c(=O)n2C showed normalized growth equal to 0.977

So, O=C(O)c1cccnc1C(=O)O ? Its normalized growth was 0.991

GET /value?item= O=C1NS(=O)(=O)c2ccccc21 &field=normalized growth returns 0.977
